# Experimental target: T1, Peptide 4: Biotin-AGGGGSGGGGSGGGGSAAA-Tyr-acid (N-terminal biotin; C-terminal acid)
# T1 construct: Control peptide without PC
# T1 peptide: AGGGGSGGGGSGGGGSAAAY
# Measurement description: scFv ELISA
# Description: For ELISA analysis of scFv binding, 96-well polystyrene plates were coated with Peptide 1, 4, 5, 8 or 100 μL BSA (10 μg/mL) in PBS at 4° C. overnight. […] All plates were washed three times with PBS-Tween before 40 μL aliquots of PPE were added to assay plates along with 50 μL 10% BSA, and plates were incubated for 1 hour at room temperature. […] The amount of scFv bound to each well was quantitated from absorbance measurement at 450 nm (OD450).
Metric name: OD450 (OD450)
Provide the reading as a plain figure in OD450.

Binder	Metric name	Reading
PcOxP_DB04_D05 (scFv, V domains shown, scFv in periplasmic extract) VH: EVQLLESGGGLVQPGGSLRLSCAASGFTFSDYYMEWVRQAPGKGLEWVAASRNVANDYTTEYADSVKGRFTISRDNSKNTLYLQMNSLRAEDTAVYYCARDYYGSSYWYFDVWGQGTLVTVSS VL: DIVMTQSPDSLAVSLGERATINCTASTSLYSSKHKVHYLAWYQQKPGQPPKLLIYGASNRYIGVPDRFSGSGSGTDFTLTISSLQAEDVAVYYCAQFYSYPLTFGGGTKVEIK	OD450	0.05
PcOxP_DB04_F03 (scFv, V domains shown, scFv in periplasmic extract) VH: EVQLLESGGGLVQPGGSLRLSCAASGFTASDFYMEWVRQAPGKGLEWVAASRWKANDYTTEYADSVKGRFTISRDNSKNTLYLQMNSLRAEDTAVYYCARDIYGSSYWYFDVWGQGTLVTVSS VL: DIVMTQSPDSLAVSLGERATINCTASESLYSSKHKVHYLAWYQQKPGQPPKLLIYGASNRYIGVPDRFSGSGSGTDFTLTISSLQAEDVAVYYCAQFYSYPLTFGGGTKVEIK	OD450	0.06

Tell me the measured OD450 of PcOxP_DB02_F11 (scFv, V domains shown, scFv in periplasmic extract) VH: EVQLLESGGGLVQPGGSLRLSCAASGTTFSDFYMEWVRQAPGKGLEWVAASRNKYNDYTTEYADSVKGRFTISRDNSKNTLYLQMNSLRAEDTAVYYCARDYYGSSYWYFDVWGQGTLVTVSS VL: DIVMTQSPDSLAVSLGERATINCTASESLYSSKHKVHYLAWYQQKPGQPPKLLIYGASNRYPGVPDRFSGSGSGTDFTLTISSLQAEDVAVYYCAQFYSYPLTFGGGTKVEIK , please.
0.04
